# measurement-notes: endothelial E-selectin expression blockers – imaging, HUVEC, immunofluorescence, MLSMR starter and 10KST1 sets, primary screen (AID 487);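 note: signal is fraction of cell area covered by stained E-selectin grains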
# conditions: HUVEC TNFalpha-induced E-selectin immunofluorescence imaging, at 2 µM; stronger effect = higher value
readout-kind: inhibition (%)

COc1ccc2c(c1)C(C)=CC(C)(C)N2C(=O)CSc1nnc(-c2ccc(C)cc2)o1 | 14.4
CCc1c(C)c2c(C)nn(-c3ccccc3)c2[nH]c1=O | -49.1
O=C(Nc1ccon1)c1csc2c1CCCC2 | -52.8
Cc1cnc(C(=O)OCC(=O)Nc2ccc(Oc3ccccc3)cc2)cn1 | -1.5
C=C(C)COc1ccc(-c2n[nH]c(C)c2-c2ccccc2)c(O)c1 | 0.8
Cc1cc(C)c(NC(=O)Cn2cc3c(n2)CCCC3)c(C)c1 | -1.2
CCOC(=O)COc1ccc(C2NC(C(=O)O)CS2)cc1 (stereo not drawn) | -4.8
Cc1ccc2[nH]cc(C(=O)CN3CCC4(CC3)OCCO4)c2c1 | -18.9
O=C(CSc1nc(O)c(Cc2ccccc2)c(=O)[nH]1)Nc1ccccc1 | 5.2
COc1ccc(N(C(=O)c2ccco2)C(C(=O)NC2CCCC2)c2ccc(N(C)C)cc2)cc1OC (stereo not drawn) | -96.5
CCCS(=O)(=O)N1CCN(C(=O)c2cccs2)CC1 | -58.9
O=C(CCN1C(=O)C2C3C=CC(C3)C2C1=O)NCCc1ccccc1Cl (stereo not drawn) | -111
COCCn1c(-c2ccco2)nc2nc3ccccc3nc21 | -4.2
c1ccc(CCNc2ccc3nncn3n2)cc1 | -9.2
O=C(CCSc1nccn1Cc1ccccc1)N1CCOCC1 | -7.8
COc1ccccc1NC(=O)C(C)NS(=O)(=O)c1ccc(F)cc1 (stereo not drawn) | -22.4
COc1ccc(-c2nc(C(N)=O)c3[nH]c(=O)n(-c4cccc(Cl)c4)c3n2)cc1OC | -63.8
NC(=O)CN1C(=O)C(O)(CC(=O)c2ccccc2O)c2ccccc21 (stereo not drawn) | -65.3
CCOC(=O)c1ccc(NC(=O)CSC2=NC(=O)C(CC)C(=O)N2)cc1 (stereo not drawn) | -104
Cc1cc(Nc2ccccc2N2CCOCC2)n2ncnc2n1 | -16.1
CCc1ccccc1-n1c(SCC(=O)N2CCCC2)nnc1-c1ccccn1 | -11.2
O=S(=O)(c1ccc(N2CCN(c3ccc(F)cc3)CC2)cc1)N1CCCC1 | -32.4
COc1ccc(C(=O)N(CCN2CCOCC2)CC(=O)NC2CCCC2)cc1OC | -41.4

###

# measurement-notes: inhibitors of TNFa-induced NFkB p65 translocation, primary screen, imaging, HUVEC, MLSMR starter and 10KST1 sets (AID 438);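 note: compound added about 3h40 before a 20 min TNFalpha stimulation; signal is the nuclear over cytoplasmic p65 intensity ratio per well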
# conditions: HUVEC TNFa-induced p65 nuclear translocation; at 2 µM, stronger effect = higher value, 0% TNFa-plus-vehicle, 100% no-TNFa wells
readout-kind: inhibition (%)

COC(=O)c1ccc(NC(=O)Cn2nnc3ccccc32)cc1 | -10.2
C=CCn1c(-c2ccccc2)c[nH]c1=S | -9.5
Cn1c(C(=O)NCC2CCCO2)cc2c(=O)n(C)c3ccccc3c21 (stereo unspecified) | -5.5
COc1cc(NC(=O)Nc2cccc(Cl)c2)c(OC)cc1NC(=O)CN1CCCCC1 | -15.2
COc1cc(NC2=CC(=O)CC(C)(C)C2)cc(OC)c1 | 7.5
CCOC(=O)c1cccc(NC(=O)CSc2nnc(-c3cccnc3)n2C)c1 | -0.3
CCOC(=O)c1[nH]c(=O)c2ccccc2c1O | -3.9
CCOc1ccccc1C(=O)Nc1nnc(CC)s1 | -12
Cn1c(CNc2nc(-c3ccccc3)cs2)nnc1SCC(=O)N1CCc2ccccc21 | 11.1
O=C(O)c1ccc(COc2ccc(Cl)cc2)o1 | -3.3
COc1ccc(-n2c(Cc3cccn3C)nnc2SCC(=O)NCC2CCCO2)cc1 (stereo unspecified) | 1.8
CCc1nc(SCC(=O)NCc2ccco2)c2c3c(sc2n1)CCCC3 | -2.1
CCOC(=O)N1CCN(C(=O)COc2ccc(S(=O)(=O)NC3CCCCC3)cc2C)CC1 | 9.7
COc1cccc2cc(C(=O)C3=C(O)C(=O)N(CCCN4CCOCC4)C3c3ccncc3)oc12 (stereo unspecified) | 0.9
O=c1c2cc(N3CCOCC3)ccc2[nH]c(=S)n1CCCN1CCCCC1 | 6.2
CCOc1cc(C(=O)N2CCN=C2SC)cc(OCC)c1OCC | -4.9
COCCNC(=O)CN(C)S(=O)(=O)c1ccc(Br)cc1 | 2.1
Cc1ccc2cccc(SCC(=O)N3CCOCC3)c2n1 | -6.7
CCOC(=O)C1CCN(Cc2c(O)ccc3ccccc23)CC1 | -3
COc1ccc(OC)c(NC(=O)CS(=O)(=O)Cc2nc(-c3ccccc3C)oc2C)c1 | 1.1
O=C(CC(SCCO)c1ccc2c(c1)OCO2)c1ccco1 (stereo unspecified) | -10.2
COCCNC(=O)Cn1cc2c(n1)CCCCC2 | 5.8
Cc1cccc(-n2ncc3c(NCCCO)ncnc32)c1 | 2.3
Clc1ccc2nc(N3CCCCC3)[nH]c2c1 | 5.6
CCOC(=O)c1cc2c(=O)n3ccccc3nc2n(CCCOC)c1=NC(C)=O | 11.2
O=C(O)C1CCCCC1C(=O)NCCc1ccccc1 (stereo unspecified) | 4.6
Cc1cc(NC(=O)CCCN2C(=O)c3cccnc3C2=O)no1 | 5.6
CCOCCCNC(=O)C1CCN(S(=O)(=O)c2c(C)noc2/C=C\c2ccc(OC)cc2)CC1 | 1.2
O=C(NCc1nnc(SCC(=O)N2CCC(Cc3ccccc3)CC2)o1)c1ccccc1F | -0.4
COc1ccc(C2C(C#N)=C(N)OC3=C2C(=O)CC(C)C3)c(OC)c1OC (stereo unspecified) | 15.6
Cc1cccc(C(=O)N2CCC(n3nnc4cc(F)ccc43)CC2)c1 | -12.5
CCOC(=O)CN1CC23C=CC(O2)C(C(=O)NC2CCCC2)C3C1=O (stereo unspecified) | 4.1
CC(=O)c1cccc(NS(=O)(=O)c2ccc3c(c2)oc(=O)n3C)c1 | -9
COc1ccc(-n2nnnc2SCC(=O)N2CCOCC2)cc1 | 2.8
CCOC(=O)c1ccc(NC(=O)COc2ccc(-n3cnnn3)cc2)cc1 | -0.5
Cc1nc2ccccn2c1/C(O)=C1\C(=O)C(=O)N(CCCN(C)C)C1c1ccc(F)cc1 (stereo unspecified) | 21.6
CCOC(=O)C(NC(=O)OC(C)C)(Nc1nccs1)C(F)(F)F (stereo unspecified) | 10.6
CCOC(=O)COc1ccc(C2NC(C(=O)O)CS2)cc1 (stereo unspecified) | -9.6
CCOC(=O)C1CCCN(CCC(C)c2ccccc2)C1 (stereo unspecified) | -2.7
Cc1nc2ccc(N3C(=O)CCC3=O)cc2[nH]1 | -8
CN(CCNS(=O)(=O)c1ccc2c(c1)oc(=O)n2C)Cc1ccccc1 | -6.7
O=S(=O)(NC1CCCC1)c1ccc(S(=O)(=O)N2CCc3ccccc32)cc1 | 0
CCC(CC)C(=O)Nc1cccc(C(=O)NCc2ccco2)c1 | 2.3
CCc1[nH]nc2c1C(c1ccncc1)C(C#N)=C(N)O2 (stereo unspecified) | 2.9
CN1CCN(CC(=O)N2c3ccccc3C(C)(c3ccccc3)CC2(C)C)CC1 (stereo unspecified) | 2.9
Cc1ccc(N2CC(C)Cn3c2nc2c3c(=O)n(CC(=O)OCc3ccccc3)c(=O)n2C)cc1C (stereo unspecified) | -3.2
